Measured Population Pyknosed Nuclei (%) by item
Test system: Fibroblast
method: Multiplex assay against human fibroblast
Assay type: toxicity, cell-based
applied-conditions: 24 h, 1 µM, compound concentration 1 uM, replicate 2
Provide only the numeric value, understood in %.

[[record]]
compound = "COc1ccc(-c2ccc3ncc4c(c3c2)n(-c2ccc(N3CCNCC3)c(C(F)(F)F)c2)c(=O)n4C)cn1.O=C(O)/C=C\\C(=O)O"
system_name = "Fibroblast"
reported_metric = "Population Pyknosed Nuclei (%)"
test_result = 40

[[record]]
compound = "Cl.O=C(O)c1cc(-c2ccc(C3CCNCC3)cc2)c2ccc(-c3ccc(C(F)(F)F)cc3)cc2c1"
system_name = "Fibroblast"
reported_metric = "Population Pyknosed Nuclei (%)"
test_result = 9

[[record]]
compound = "C=CC(=O)Nc1cccc(Oc2nc(Nc3ccc(N4CCN(C)CC4)cc3OC)ncc2Cl)c1"
system_name = "Fibroblast"
reported_metric = "Population Pyknosed Nuclei (%)"
test_result = 12


Entry O=C(c1cc2c(cc1F)OC(c1ccc(F)cc1)(c1ccc(Cl)cc1Cl)O2)N1CCOCC1 (stereo unspecified) : reported Population Pyknosed Nuclei (%) = ?
5

Same lookup for "CCOC(=O)Nc1cc(-c2ccc(C)c(NS(C)(=O)=O)c2)nn2c(C)nnc12" , please.
8

Same lookup for "Cc1nc(N2CC[C@H](O)C2)ncc1-c1cc(C(F)(F)F)cc2[nH]ncc12" , please.
23

Hello, the source for this data is ChEMBL document CHEMBL4689842, in case you need it.
